# ASSAY_PROTOCOL: Free fraction by equilibrium dialysis, rat brain homogenate
# Assay type: in vitro ADME
# STUDY_CONDITIONS: equilibrium dialysis 37°C 5 h, mean ± S.E.M., n = 3
PROPERTY_NAME: fraction unbound at 5 h
Form rule: numeric answer, no unit written next to it.

fraction unbound at 5 h reported for this compound C[C@@H](c1ccc2c(c1)N(CC1CC1)CCO2)N(C)C(=O)/C=C/c1ccccc1F : 0.001

====

# MEASURED_TARGET: KV7.4 (Homo sapiens, UniProt P56696)
# Sequence (P56696 whole entry): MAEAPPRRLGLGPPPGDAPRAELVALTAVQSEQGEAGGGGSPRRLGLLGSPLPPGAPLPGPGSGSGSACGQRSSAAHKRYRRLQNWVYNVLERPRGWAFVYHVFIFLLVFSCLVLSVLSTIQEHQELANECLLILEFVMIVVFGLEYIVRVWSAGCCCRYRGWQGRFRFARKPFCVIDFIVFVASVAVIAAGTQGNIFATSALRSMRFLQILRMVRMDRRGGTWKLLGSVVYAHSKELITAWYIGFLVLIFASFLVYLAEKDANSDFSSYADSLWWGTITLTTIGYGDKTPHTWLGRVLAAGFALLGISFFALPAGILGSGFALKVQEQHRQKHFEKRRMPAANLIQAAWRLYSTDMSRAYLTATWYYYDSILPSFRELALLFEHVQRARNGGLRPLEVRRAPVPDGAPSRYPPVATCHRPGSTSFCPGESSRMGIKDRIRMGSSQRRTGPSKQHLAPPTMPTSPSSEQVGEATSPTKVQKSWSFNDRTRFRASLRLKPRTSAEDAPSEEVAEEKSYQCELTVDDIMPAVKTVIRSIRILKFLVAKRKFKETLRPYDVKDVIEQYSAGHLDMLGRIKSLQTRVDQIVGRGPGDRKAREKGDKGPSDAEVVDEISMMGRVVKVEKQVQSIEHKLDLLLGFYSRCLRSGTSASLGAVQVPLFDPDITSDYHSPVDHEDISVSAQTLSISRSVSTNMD
# ASSAY_PROTOCOL: Two-electrode voltage-clamp of KV7.4 expressed in Xenopus laevis oocytes
# STUDY_CONDITIONS: increase in steady state current at +50 mV; n = 5
PROPERTY_NAME: EC50 (µM)
Reply with just the number (in µM).

Note to self: EC50 recorded for C[C@@H](c1ccc2c(c1)N(CC1CC1)CCO2)N(C)C(=O)/C=C/c1ccccc1F was 5.7

====

# System: human MDR1 (ABCB1, P-glycoprotein)
# ASSAY_PROTOCOL: Bidirectional permeability in MDR1-MDCK cells
# Assay type: in vitro ADME
# STUDY_CONDITIONS: dog, MDCK-MDR1; 150-min incubation at 37°C; read-out: efflux ratio, Papp (B to A) / Papp (A to B)
PROPERTY_NAME: efflux ratio at 150 min
# print the numeric value only

Entry C[C@@H](c1ccc2c(c1)N(CC1CC1)CCO2)N(C)C(=O)/C=C/c1ccccc1F [SMB-1] ; efflux ratio at 150 min = 0.7

====

# ASSAY_PROTOCOL: Brain and plasma exposure in rats after subcutaneous administration
# Type: in vivo
# STUDY_CONDITIONS: male, Sprague-Dawley, brain, sc; rat, 20 mg/kg s.c., 120 min, n = 3, mean ± S.E.M; read-out: Brain total concentration
PROPERTY_NAME: concentration at 120 min (nM)
Expressed in nM, but write only the number.

Lab note: C[C@@H](c1ccc2c(c1)N(CC1CC1)CCO2)N(C)C(=O)/C=C/c1ccccc1F gave concentration at 120 min of 440

====

# ASSAY_PROTOCOL: Brain and plasma exposure in rats after subcutaneous administration
# Type: in vivo
# STUDY_CONDITIONS: male, Sprague-Dawley, plasma, sc; rat, 20 mg/kg s.c., 30 min, n = 3, mean ± S.E.M; read-out: Plasma total concentration
PROPERTY_NAME: concentration at 30 min

Sure, the documented concentration at 30 min for C[C@@H](c1ccc2c(c1)N(CC1CC1)CCO2)N(C)C(=O)/C=C/c1ccccc1F is 14 µM

====

# ASSAY_PROTOCOL: Brain and plasma exposure in rats after subcutaneous administration
# Format: in vivo
# STUDY_CONDITIONS: male, Sprague-Dawley, brain, sc; rat, 20 mg/kg s.c., 30 min, n = 3, mean ± S.E.M; read-out: Brain total concentration
# Protocol: Brain and plasma exposure of SMB-1 was evaluated in male Sprague-Dawley rats (225–250 g, Charles River Lab., UK). SMB-1 was administered subcutaneously in solution at a dose of 20 mg/kg in 25% solutol (dose volume 5 ml/kg) and exposure was assessed after 30 and 120 min (n = 3). Under isoflurane anesthesia, cardiac blood was obtained in EDTA-coated tubes and centrifuged for 10 min at 4°C, after which plasma was harvested. […]
PROPERTY_NAME: concentration at 30 min (nM)
Write it as a number; the unit nM goes unstated.

concentration at 30 min recorded for this compound, C[C@@H](c1ccc2c(c1)N(CC1CC1)CCO2)N(C)C(=O)/C=C/c1ccccc1F , is 550
